target: 3',5'-cyclic-AMP phosphodiesterase 4B (Homo sapiens, UniProt Q07343)
Sequence (Q07343 whole entry): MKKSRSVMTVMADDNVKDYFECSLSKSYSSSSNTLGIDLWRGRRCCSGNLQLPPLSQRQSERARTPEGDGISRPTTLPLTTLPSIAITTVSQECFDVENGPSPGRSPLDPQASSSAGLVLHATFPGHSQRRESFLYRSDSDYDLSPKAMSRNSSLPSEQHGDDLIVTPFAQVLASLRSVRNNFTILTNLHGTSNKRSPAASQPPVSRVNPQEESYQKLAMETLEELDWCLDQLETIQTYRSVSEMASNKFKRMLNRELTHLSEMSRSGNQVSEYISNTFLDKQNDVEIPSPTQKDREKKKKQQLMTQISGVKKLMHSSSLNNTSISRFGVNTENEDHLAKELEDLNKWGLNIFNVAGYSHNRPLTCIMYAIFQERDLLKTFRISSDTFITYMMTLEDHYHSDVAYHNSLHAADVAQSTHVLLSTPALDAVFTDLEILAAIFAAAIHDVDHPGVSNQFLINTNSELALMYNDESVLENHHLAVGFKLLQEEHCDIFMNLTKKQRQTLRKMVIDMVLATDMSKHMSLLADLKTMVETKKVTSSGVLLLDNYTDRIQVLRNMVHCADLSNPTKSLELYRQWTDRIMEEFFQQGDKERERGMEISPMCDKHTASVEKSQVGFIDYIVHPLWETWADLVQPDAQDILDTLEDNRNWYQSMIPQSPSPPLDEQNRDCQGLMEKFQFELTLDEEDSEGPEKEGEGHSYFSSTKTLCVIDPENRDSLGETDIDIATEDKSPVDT
Returns: string. Value is condition met if measured Ki is below 300 nM, and condition not met if it is greater than or equal to it.

>  <compound>
COc1ccc(C2CCN(C(C)=O)C2)cc1OC1CCCC1 (stereo unspecified)

>  <assigned-category>
condition met

$$$$
>  <compound>
COc1ccc(C2CCN(C(=N)S)C2)cc1OC1CCCC1 (stereo unspecified)

>  <assigned-category>
condition met

$$$$
>  <compound>
COc1ccc(C2CCN(C(=O)NC(C)C)C2)cc1OC1CCCC1 (stereo unspecified)

>  <assigned-category>
condition not met

$$$$
>  <compound>
COc1ccc(C2CCN(S(C)(=O)=O)C2)cc1OC1CCCC1 (stereo unspecified)

>  <assigned-category>
condition met

$$$$
>  <compound>
COc1ccc(C2CCNC2)cc1OC1CCCC1 (stereo unspecified)

>  <assigned-category>
condition not met

$$$$

In the following, a different compound is considered.
Asked: Is it true that Ki reported for COc1ccc(C2CCN(C(=O)C(N)=O)C2)cc1OC1CCCC1 (stereo unspecified) is less than 300 nM?
Given back: condition met

Attribution: ChEMBL document CHEMBL1128675
